Hey, just so you know, these numbers are from PubChem BioAssay (NCI).

Tested on: 786-0 renal
testMethodNotes: NCI-60 one-dose screen, 48 h (100 = growth as untreated, 0 = no growth, -100 = all killed)
conditionDetails: 10 µM unless noted
Compounds without any hit were thinned out: in the full panel of roughly 83,000, 20% have a hit.
Threshold 40%: growth strictly smaller gives yes (1), otherwise no (0).

Example entries and their recorded answers appear below.
compound: CC(C)=CCc1cc2c(cc1O)C1=C(C(=O)C3=C(NCCS3(=O)=O)C1=O)C(C=C(C)C)O2 (stereo not drawn)
assignedClass: no (0)

compound: COc1ccc2c(CCCCC(c3ccccc3)c3ccccc3)c3[n+](cc2c1OC)CCc1cc2c(cc1-3)OCO2
assignedClass: yes (1)

compound: ClCc1ccc(-c2ccc(Cn3cnc4c(Cl)nc(Cl)nc43)cc2)cc1
assignedClass: yes (1)

[ask] Strictly below 40%: is that where growth of COC(=O)CNC(=O)[C@@H](OC)[C@@H]1Cc2cc3cc(OC4CC(OC5CC(O)C(O)C(C)O5)C(O)C(C)O4)c(C)c(O)c3c(O)c2C(=O)[C@H]1OC1CC(OC2CC(OC3CC(C)(O)C(O)C(C)O3)C(O)C(C)O2)C(O)C(C)O1 (stereo partly drawn) sits?
[reply] yes (1)

[ask] # strict comparison: is reported growth < 40%? input = O=C1C=CC2(NN=C(c3ccccc3)N2c2cccc(Cl)c2)c2cccc(O)c21 (stereo not drawn)
[reply] no (0)

[ask] Item N[C@@H]1CCCN(c2c(/C=C3\SC(=O)NC3=O)cccc2-c2ccccc2)C1 : growth beneath 40%, strictly?
[reply] no (0)

[ask] Dear colleague, could you confirm whether growth of COc1cc(CCc2cc(NC(=O)c3ccc(N4C[C@@H](C)N[C@@H](C)C4)cc3)n[nH]2)cc(OC)c1 falls below 40%? Thanks.
[reply] yes (1)

[ask] hey, is growth for N#Cc1c(-c2ccc(C(F)(F)F)cc2)c(F)c(NCCC2CCC(O)C2)n2c1nc1ccccc12 (stereo not drawn) lower than 40% or not?
[reply] no (0)
